subject-of-test: T1, DGI-2 (UniProt Q15004 1-111, limits assumed)
T1 construct: Soluble recombinant DGI-2 made by in vitro translation (RTS, pIVEX2.3-MCS vector) and coated on plates for the ELISA; vector tag not described; also called KIAA0101; DGI-2 polypeptide
T1 sequence (looked up): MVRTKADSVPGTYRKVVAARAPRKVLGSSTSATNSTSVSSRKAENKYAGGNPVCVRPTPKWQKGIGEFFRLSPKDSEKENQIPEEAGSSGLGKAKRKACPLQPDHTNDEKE
test-summary: phage ELISA, coated DGI-2
No end group written: not given here.
assay-metric: binding result

TANGHRYGGCGLWCKWMSGM (not fully specified; cysteine pairing not given here, on M13 phage, pIII fusion with E-tag) [DGI-2-20R-4-E2] : binds
MSTLQGPGHLFQMLRRASLG (on M13 phage, pIII fusion with E-tag) [DGI-2-20R-4-H12] : binds
LGRTFVWGTCLHLSVSRFGH (on M13 phage, pIII fusion with E-tag) [DGI-2-20F-PP-C3] : binds
